For each record, write down the corresponding IC50.
Test system: CHO
Test: Antiproliferative activity against CHO cells after 48 hrs by sulforhodamine B assay
Format: functional, cell-based
Settings: Cricetulus griseus
Answers are plain numbers, in nM.

• COc1cc2c(c(OC)c1OC)-c1ccc(OC)c(=O)cc1[C@@H](NC(C)=O)CC2 [COLCHICINE] = 220
• COc1cc(OS(=O)(=O)c2ccc(N3CCNC3=O)cc2)cc(OC)c1OC = 7.4
• O=C1NCCN1c1ccc(S(=O)(=O)Oc2cccc(I)c2)cc1 = 17
• COc1cc(OC)cc(OS(=O)(=O)c2ccc(N3CCNC3=O)cc2)c1 = 7.3
• O=C1NCCN1c1ccc(S(=O)(=O)Oc2ccc(F)cc2)cc1 = 230

# evaluate next
Req: Under CHO: IC50 value of O=C1NCCN1c1ccc(S(=O)(=O)Oc2cc(Cl)cc(Cl)c2)cc1 ?
Resp: 17

====

For each record, write down the corresponding pIC50.
Assay: Antiproliferative activity against mouse B16F0 cells after 48 hrs by sulforhodamine B assay
Assay type: functional, cell-based
Settings: B16F0, 48 h
One number for each entry, as −log10 of the molar value.

Example entries begin here.
• CCOc1cccc(OS(=O)(=O)c2ccc(N3CCNC3=O)cc2)c1 = 7.19
• COc1ccc(OS(=O)(=O)c2ccc(N3CCNC3=O)cc2)cc1 = 6.29
• O=C1NCCN1c1ccc(S(=O)(=O)Oc2cc(Cl)cc(Cl)c2)cc1 = 7.39
• O=C1NCCN1c1ccc(S(=O)(=O)Oc2ccc(F)cc2)cc1 = 6.60
• COc1cc(OC)cc(OS(=O)(=O)c2ccc(N3CCNC3=O)cc2)c1 = 7.60

Req: # input molecule: O=C1NCCN1c1ccc(S(=O)(=O)Oc2cccc(I)c2)cc1 ; wanted: its pIC50
Resp: 7.52

====

Experiment: Antiproliferative activity against mouse B16F0 cells after 48 hrs by sulforhodamine B assay
Format: functional, cell-based
Conditions: B16F0, 48 h
parameter: log10 IC50 (log10 of the value in nM)
Scale: log10; quantity: IC50; unit before log: nM

• CC[C@]1(O)C[C@@H]2CN(CCc3c([nH]c4ccccc34)[C@@](C(=O)OC)(c3cc4c(cc3OC)N(C)[C@H]3[C@@](O)(C(=O)OC)[C@H](OC(C)=O)[C@]5(CC)C=CCN6CC[C@]43[C@@H]65)C2)C1 = -1.00
• COc1cc(OS(=O)(=O)c2ccc(N3CCNC3=O)cc2)cc(OC)c1OC = 0.96
• COc1cc2c(c(OC)c1OC)-c1ccc(OC)c(=O)cc1[C@@H](NC(C)=O)CC2 = 1.11
• O=C1NCCN1c1ccc(S(=O)(=O)Oc2c(F)cccc2F)cc1 = 1.96
• CC(=O)O[C@H]1C(=O)[C@@]2(C)[C@H]([C@H](OC(=O)c3ccccc3)[C@]3(O)C[C@H](OC(=O)[C@H](O)[C@@H](NC(=O)c4ccccc4)c4ccccc4)C(C)=C1C3(C)C)[C@]1(OC(C)=O)CO[C@@H]1C[C@@H]2O = 1.45

Could you tell me log10 IC50 for each of these molecules? They are listed below.
1. Cc1ccc(C)c(OS(=O)(=O)c2ccc(N3CCNC3=O)cc2)c1
2. O=C1NCCN1c1ccc(S(=O)(=O)Oc2cccc(Cl)c2)cc1

Resp:
1. 1.69
2. 1.66

====

System: M21
Test: Cell cycle arrest in human M21 cells assessed as accumulation at S phase at 5 times IC50 after 24 hrs using propidium iodide staining by flow cytometric analysis (reference value: 30%)
Type: functional
parameter: Activity
Returns: string containing the number followed by the unit.

Example entries begin here.
* O=C1NCCN1c1ccc(S(=O)(=O)Oc2cc(Cl)cc(Cl)c2)cc1 | 20%
* Cc1ccc(OS(=O)(=O)c2ccc(N3CCNC3=O)cc2)c(C)c1 | 0%
* CCc1ccccc1OS(=O)(=O)c1ccc(N2CCNC2=O)cc1 | 0%

Could you tell me Activity for each of these molecules? They are listed below.
1. O=C1NCCN1c1ccc(S(=O)(=O)Oc2ccccc2F)cc1
2. Cc1cccc(OS(=O)(=O)c2ccc(N3CCNC3=O)cc2)c1
3. Cc1ccc(C)c(OS(=O)(=O)c2ccc(N3CCNC3=O)cc2)c1

Resp:
1. 34%
2. 0%
3. 20%

Could you tell me Activity for each of these molecules? They are listed below.
1. O=C1NCCN1c1ccc(S(=O)(=O)Oc2cccc(I)c2)cc1
2. COc1cc(OS(=O)(=O)c2ccc(N3CCNC3=O)cc2)cc(OC)c1OC
3. O=C1NCCN1c1ccc(S(=O)(=O)Oc2ccc(F)cc2)cc1

Resp:
1. 21%
2. 1%
3. 21%

Could you tell me Activity for each of these molecules? They are listed below.
1. COc1ccc(OS(=O)(=O)c2ccc(N3CCNC3=O)cc2)cc1
2. O=C1NCCN1c1ccc(S(=O)(=O)Oc2cc(F)c(F)c(F)c2)cc1

Resp:
5%
31%

====

Assay: Toxicity against fertilized chicken embryo assessed as mortality at 1 ug per egg, iv by CAM assay
Type: organism-based, Gallus gallus
Conditions: in vivo, read-out: Activity
parameter: mortality

* COc1ccc(/C=C\c2cc(OC)c(OC)c(OC)c2)cc1O | 18%

# evaluate next
Req: # input molecule: COc1cc(OS(=O)(=O)c2ccc(N3CCNC3=O)cc2)cc(OC)c1OC ; wanted: its mortality
Resp: 8%

====

System: HT-29
Experiment: Antiproliferative activity against human HT-29 cells after 48 hrs by sulforhodamine B assay
Format: functional, cell-based
Conditions: HT-29, 48 h
For each record, write down the corresponding pIC50.
One number for each entry, as −log10 of the molar value.

Could you tell me pIC50 for each of these compounds? They are listed below.
1. O=C1NCCN1c1ccc(S(=O)(=O)Oc2ccccc2I)cc1
2. Cc1ccc(OS(=O)(=O)c2ccc(N3CCCNC3=O)cc2)cc1
3. CCCCOc1ccc(OS(=O)(=O)c2ccc(N3CCNC3=O)cc2)cc1

Resp:
1. 7.26
2. 6.14
3. 6.27

Could you tell me pIC50 for each of these compounds? They are listed below.
1. O=C1NCCN1c1ccc(S(=O)(=O)Oc2c(F)c(F)c(F)c(F)c2F)cc1
2. Nc1cccc(OS(=O)(=O)c2ccc(N3CCNC3=O)cc2)c1
3. Cc1cccc(OS(=O)(=O)c2ccc(N3CCNC3=O)cc2)c1C
4. O=C1NCCN1c1ccc(S(=O)(=O)Oc2cc(F)cc(F)c2)cc1
5. COc1cc(OC)cc(OS(=O)(=O)c2ccc(N3CCNC3=O)cc2)c1

Resp:
1: 6.47; 2: 6.00; 3: 7.51; 4: 7.44; 5: 8.10

Could you tell me pIC50 for each of these compounds? They are listed below.
1. COc1ccc(/C=C\c2cc(OC)c(OC)c(OC)c2)cc1O
2. Cc1cc(OS(=O)(=O)c2ccc(N3CCNC3=O)cc2)cc(C)c1C
3. CCCc1ccc(OS(=O)(=O)c2ccc(N3CCNC3=O)cc2)cc1
4. CCc1ccccc1OS(=O)(=O)c1ccc(N2CCNC2=O)cc1
5. O=C1NCCN1c1ccc(S(=O)(=O)Oc2ccccc2[N+](=O)[O-])cc1
6. Cc1ccc(OS(=O)(=O)c2ccc(N3CCNC3=O)cc2)cc1
7. O=C1NCCN1c1ccc(S(=O)(=O)Oc2ccc(F)cc2F)cc1
8. Cc1cc(OS(=O)(=O)c2ccc(N3CCNC3=O)cc2)ccc1N

Resp:
1: 7.21; 2: 7.47; 3: 7.11; 4: 7.21; 5: 6.72; 6: 6.92; 7: 7.39; 8: 6.17

====

Test system: L1210
Assay: Antiproliferative activity against mouse L1210 cells after 48 hrs by sulforhodamine B assay
Assay type: functional, cell-based
Settings: L1210, 48 h
parameter: pIC50
Give bare numbers, as −log10 of the molar value.

Example entries begin here.
- CC(=O)O[C@H]1C(=O)[C@@]2(C)[C@H]([C@H](OC(=O)c3ccccc3)[C@]3(O)C[C@H](OC(=O)[C@H](O)[C@@H](NC(=O)c4ccccc4)c4ccccc4)C(C)=C1C3(C)C)[C@]1(OC(C)=O)CO[C@@H]1C[C@@H]2O [PACLITAXEL]: 9.40
- CCOc1cccc(OS(=O)(=O)c2ccc(N3CCNC3=O)cc2)c1: 7.72
- COc1cc2c(c(OC)c1OC)-c1ccc(OC)c(=O)cc1[C@@H](NC(C)=O)CC2 [COLCHICINE]: 8.16

# evaluate next
Req: # input compound: O=C1NCCN1c1ccc(S(=O)(=O)Oc2cc(Cl)cc(Cl)c2)cc1 ; wanted: its pIC50
Resp: 8.02

====

Test system: HT-29
Assay: Antiproliferative activity against human HT-29 cells after 48 hrs by sulforhodamine B assay
Assay type: functional, cell-based
Conditions: HT-29, 48 h
pIC50: −log10 of the molar value.
Label rule met when pIC50 >= 7; otherwise rule not met.

Below are worked cases with known answers.
* CC(C)(C)[Si](C)(C)Oc1ccc(OS(=O)(=O)c2ccc(N3CCNC3=O)cc2)cc1 | rule not met
* CCc1ccccc1OS(=O)(=O)c1ccc(N2CCCNC2=O)cc1 | rule not met
* Cc1ccccc1OS(=O)(=O)c1ccc(N2CCNC2=O)cc1 | rule met

Req: Reported pIC50 reaches at least 7 for Cc1ccc(OS(=O)(=O)c2ccc(N3CCCNC3=O)cc2)c(C)c1 ?
Resp: rule not met

Req: Next compound: Cc1cc(C)cc(OS(=O)(=O)c2ccc(N3CCNC3=O)cc2)c1
Resp: rule met

Req: Next compound: Cc1ccc2cccc(OS(=O)(=O)c3ccc(N4CCNC4=O)cc3)c2n1
Resp: rule not met

Req: Next compound: O=C1NCCN1c1ccc(S(=O)(=O)Oc2ccc(-n3ccnc3)cc2)cc1
Resp: rule not met

Source listed as ChEMBL document CHEMBL1799919.
